From: ChEMBL document CHEMBL1255219

organism: Homo sapiens; assay: Half life in human plasma at 100 uM

>  <compound>
COC(=O)[C@H](C)NP(=O)(OC[C@H]1O[C@@H](n2ccc(=O)[nH]c2=O)[C@](C)(F)[C@@H]1O)Oc1ccccc1 (stereo partly specified)

>  <half-life at 100 µM>
16.7 h

$$$$
>  <compound>
CCOC(=O)[C@H](C)NP(=O)(OC[C@H]1O[C@@H](n2ccc(=O)[nH]c2=O)[C@](C)(F)[C@@H]1O)Oc1ccc(F)cc1 (stereo partly specified)

>  <half-life at 100 µM>
> 8 h

$$$$
>  <compound>
CC(C)OC(=O)[C@H](C)NP(=O)(OC[C@H]1O[C@@H](n2ccc(=O)[nH]c2=O)[C@](C)(F)[C@@H]1O)Oc1ccc(Cl)cc1 (stereo partly specified)

>  <half-life at 100 µM>
> 24 h

$$$$
>  <compound>
C[C@H](NP(=O)(OC[C@H]1O[C@@H](n2ccc(=O)[nH]c2=O)[C@](C)(F)[C@@H]1O)Oc1ccccc1)C(=O)OC1CCCCC1 (stereo partly specified)

>  <half-life at 100 µM>
> 24 h

$$$$
>  <compound>
C[C@H](NP(=O)(OC[C@H]1O[C@@H](n2ccc(=O)[nH]c2=O)[C@](C)(F)[C@@H]1O)Oc1ccc(F)cc1)C(=O)OC1CCCCC1 (stereo partly specified)

>  <half-life at 100 µM>
> 24 h

$$$$
>  <compound>
CC(C)OC(=O)[C@H](C)NP(=O)(OC[C@H]1O[C@@H](n2ccc(=O)[nH]c2=O)[C@](C)(F)[C@@H]1O)Oc1ccc(F)cc1 (stereo partly specified)

>  <half-life at 100 µM>
> 24 h

$$$$

---

AUC by entry:
test system: Rattus norvegicus; assay: AUC (0 to infinity) in rat liver assessed as 2'-F-2'-C-Methyluridine-5''-TP level at 50 mg/kg, po; assay type: ADME, organism-based; design: time infinity, dose 50 mg/kg, route oral; settings: in vivo

>  <molecule>
CC(C)OC(=O)[C@H](C)NP(=O)(OC[C@H]1O[C@@H](n2ccc(=O)[nH]c2=O)[C@](C)(F)[C@@H]1O)Oc1ccc(Cl)cc1 (some centres not stated)

>  <AUC (ng·h/g)>
8468

$$$$
>  <molecule>
CC(C)OC(=O)[C@H](C)NP(=O)(OC[C@H]1O[C@@H](n2ccc(=O)[nH]c2=O)[C@](C)(F)[C@@H]1O)Oc1ccccc1 (some centres not stated)

>  <AUC (ng·h/g)>
18080

$$$$
>  <molecule>
C[C@H](NP(=O)(OC[C@H]1O[C@@H](n2ccc(=O)[nH]c2=O)[C@](C)(F)[C@@H]1O)Oc1ccc(F)cc1)C(=O)OC1CCCCC1 (some centres not stated)

>  <AUC (ng·h/g)>
9888

$$$$
>  <molecule>
CCOC(=O)[C@H](C)NP(=O)(OC[C@H]1O[C@@H](n2ccc(=O)[nH]c2=O)[C@](C)(F)[C@@H]1O)Oc1ccc(F)cc1 (some centres not stated)

>  <AUC (ng·h/g)>
5423

$$$$
>  <molecule>
CC(C)OC(=O)[C@H](C)NP(=O)(OC[C@H]1O[C@@H](n2ccc(=O)[nH]c2=O)[C@](C)(F)[C@@H]1O)Oc1ccc(F)cc1 (some centres not stated)

>  <AUC (ng·h/g)>
7375

$$$$
>  <molecule>
C[C@H](NP(=O)(OC[C@H]1O[C@@H](n2ccc(=O)[nH]c2=O)[C@](C)(F)[C@@H]1O)Oc1ccccc1)C(=O)OC1CCCCC1 (some centres not stated)

>  <AUC (ng·h/g)>
8831

$$$$
>  <molecule>
COC(=O)[C@H](C)NP(=O)(OC[C@H]1O[C@@H](n2ccc(=O)[nH]c2=O)[C@](C)(F)[C@@H]1O)Oc1ccccc1 (some centres not stated)

>  <AUC (ng·h/g)>
18968

$$$$

---

assay: AUC (0 to infinity) in cynomolgus monkey plasma at 50 mg/kg, po qd for 4 days; assay type: ADME, organism-based, Macaca fascicularis; parameters: time infinity, dose 50 mg/kg, route oral

>  <compound>
CC(C)OC(=O)[C@H](C)NP(=O)(OC[C@H]1O[C@@H](n2ccc(=O)[nH]c2=O)[C@](C)(F)[C@@H]1O)Oc1ccccc1 (some centres not stated)

>  <AUC(0-inf) [ng·h/mL]>
170

$$$$
>  <compound>
COC(=O)[C@H](C)NP(=O)(OC[C@H]1O[C@@H](n2ccc(=O)[nH]c2=O)[C@](C)(F)[C@@H]1O)Oc1ccccc1 (some centres not stated)

>  <AUC(0-inf) [ng·h/mL]>
34

$$$$

---

system: Rattus norvegicus; assay: AUC (0 to t) in rat liver assessed as 2'-F-2'-C-Methyluridine-5''-TP level at 50 mg/kg, po; format: ADME, organism-based; set-up: dose 50 mg/kg, route oral; conditions: in vivo
Cut-off 6000 ng·h/g on AUC: below means Condition met, at or above means Condition not met.

>  <compound>
COC(=O)[C@H](C)NP(=O)(OC[C@H]1O[C@@H](n2ccc(=O)[nH]c2=O)[C@](C)(F)[C@@H]1O)Oc1ccccc1 (some centres not stated)

>  <class>
Condition not met

$$$$
>  <compound>
CC(C)OC(=O)[C@H](C)NP(=O)(OC[C@H]1O[C@@H](n2ccc(=O)[nH]c2=O)[C@](C)(F)[C@@H]1O)Oc1ccc(Cl)cc1 (some centres not stated)

>  <class>
Condition met

$$$$
>  <compound>
CC(C)OC(=O)[C@H](C)NP(=O)(OC[C@H]1O[C@@H](n2ccc(=O)[nH]c2=O)[C@](C)(F)[C@@H]1O)Oc1ccccc1 (some centres not stated)

>  <class>
Condition not met

$$$$
>  <compound>
C[C@H](NP(=O)(OC[C@H]1O[C@@H](n2ccc(=O)[nH]c2=O)[C@](C)(F)[C@@H]1O)Oc1ccc(F)cc1)C(=O)OC1CCCCC1 (some centres not stated)

>  <class>
Condition not met

$$$$
>  <compound>
C[C@H](NP(=O)(OC[C@H]1O[C@@H](n2ccc(=O)[nH]c2=O)[C@](C)(F)[C@@H]1O)Oc1ccccc1)C(=O)OC1CCCCC1 (some centres not stated)

>  <class>
Condition not met

$$$$
>  <compound>
CCOC(=O)[C@H](C)NP(=O)(OC[C@H]1O[C@@H](n2ccc(=O)[nH]c2=O)[C@](C)(F)[C@@H]1O)Oc1ccc(F)cc1 (some centres not stated)

>  <class>
Condition met

$$$$

---

assay: Cmax in dog plasma at 50 mg/kg, po qd for 4 days; format: ADME, organism-based, Canis lupus familiaris; set-up: dose 50 mg/kg, route oral
Cmax by entry:

>  <compound>
C[C@H](NP(=O)(OC[C@H]1O[C@@H](n2ccc(=O)[nH]c2=O)[C@](C)(F)[C@@H]1O)Oc1ccc(F)cc1)C(=O)OC1CCCCC1 (stereo partly drawn)

>  <Cmax>
36 ng/mL

$$$$
>  <compound>
CC(C)OC(=O)[C@H](C)NP(=O)(OC[C@H]1O[C@@H](n2ccc(=O)[nH]c2=O)[C@](C)(F)[C@@H]1O)Oc1ccccc1 (stereo partly drawn)

>  <Cmax>
6180 ng/mL

$$$$
>  <compound>
COC(=O)[C@H](C)NP(=O)(OC[C@H]1O[C@@H](n2ccc(=O)[nH]c2=O)[C@](C)(F)[C@@H]1O)Oc1ccccc1 (stereo partly drawn)

>  <Cmax>
317 ng/mL

$$$$

---

tested on: Rattus norvegicus; assay: Tmax in rat liver assessed as 2'-F-2'-C-Methyluridine-5''-TP level at 50 mg/kg, po; type: ADME, organism-based; design: dose 50 mg/kg, route oral; settings: in vivo

>  <compound>
C[C@H](NP(=O)(OC[C@H]1O[C@@H](n2ccc(=O)[nH]c2=O)[C@](C)(F)[C@@H]1O)Oc1ccccc1)C(=O)OC1CCCCC1 (some centres not stated)

>  <u>
h

>  <Tmax>
2

$$$$
>  <compound>
CCOC(=O)[C@H](C)NP(=O)(OC[C@H]1O[C@@H](n2ccc(=O)[nH]c2=O)[C@](C)(F)[C@@H]1O)Oc1ccc(F)cc1 (some centres not stated)

>  <u>
h

>  <Tmax>
4

$$$$
>  <compound>
CC(C)OC(=O)[C@H](C)NP(=O)(OC[C@H]1O[C@@H](n2ccc(=O)[nH]c2=O)[C@](C)(F)[C@@H]1O)Oc1ccccc1 (some centres not stated)

>  <u>
h

>  <Tmax>
4

$$$$
>  <compound>
CC(C)OC(=O)[C@H](C)NP(=O)(OC[C@H]1O[C@@H](n2ccc(=O)[nH]c2=O)[C@](C)(F)[C@@H]1O)Oc1ccc(F)cc1 (some centres not stated)

>  <u>
h

>  <Tmax>
6

$$$$
>  <compound>
CC(C)OC(=O)[C@H](C)NP(=O)(OC[C@H]1O[C@@H](n2ccc(=O)[nH]c2=O)[C@](C)(F)[C@@H]1O)Oc1ccc(Cl)cc1 (some centres not stated)

>  <u>
h

>  <Tmax>
1

$$$$
>  <compound>
C[C@H](NP(=O)(OC[C@H]1O[C@@H](n2ccc(=O)[nH]c2=O)[C@](C)(F)[C@@H]1O)Oc1ccc(F)cc1)C(=O)OC1CCCCC1 (some centres not stated)

>  <u>
h

>  <Tmax>
4

$$$$
>  <compound>
COC(=O)[C@H](C)NP(=O)(OC[C@H]1O[C@@H](n2ccc(=O)[nH]c2=O)[C@](C)(F)[C@@H]1O)Oc1ccccc1 (some centres not stated)

>  <u>
h

>  <Tmax>
6

$$$$
